assay.system: human α-synuclein pre-formed fibrils (Human Alpha Synuclein Pre-formed Fibrils Type II, StressMarq SPR-317) (human, UniProt P37840 1-140)
assay.name: SPR Biacore T200, antibody captured on Protein A chip, α-syn PFF analyte, 1:1 model

binder | kon (M⁻¹ s⁻¹)
hu1E4(V8_VL4) (antibody, human IgG1, V domains shown, Monospecific; human IgG1 and kappa constant regions) VH: QVQLVQSGAEVKKPGASVKVSCKASGYTFTNYLIEWVRQAPGQGLEWMGVINPGSGGTNYNEKFKGRVTMTADKSISTAYMELSRLRSDDTAVYYCASGNYDTYWGQGTLVTVSS VL: DVVMTQSPLSLPVTLGQPASISCRSSQSLVHSNGNTYLHWYQQRPGQSPRLLIYKVSNRFSGVPDRFSGSGSGTDFTLKISRVEAEDVGVYYCSQSTHVPRTFGGGTKVEIK | 1.68e+07
